B1: TPR t1 (parent)
chain: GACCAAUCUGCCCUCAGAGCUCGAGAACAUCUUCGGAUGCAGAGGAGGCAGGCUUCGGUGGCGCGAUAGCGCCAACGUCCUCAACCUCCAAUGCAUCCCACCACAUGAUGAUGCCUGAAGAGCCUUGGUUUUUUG

# Variants of: B1
# ASSAY_PROTOCOL: polymerase ribozyme fitness, log enrichment relative to wild type (log ratio); higher = more active; in vitro selection for triplet polymerase activity
Output schema: class label derived from polymerase ribozyme fitness (log ratio). Mapping: low value = under -4, medium value = from -4 up to -1, high value = -1 and over

Inquiry: Which polymerase ribozyme fitness (log ratio) band matches G42A C64U C115A A119U ?
Reply text: medium value

Inquiry: Which polymerase ribozyme fitness (log ratio) band matches G19U G61A ?
Reply text: medium value

Inquiry: Which polymerase ribozyme fitness (log ratio) band matches C88U C123U ?
Reply text: high value

Inquiry: Which polymerase ribozyme fitness (log ratio) band matches G61U U78C G113C U130G ?
Reply text: medium value

Inquiry: Which polymerase ribozyme fitness (log ratio) band matches G42C A43C G71A U81A G120U ?
Reply text: low value

Inquiry: Which polymerase ribozyme fitness (log ratio) band matches C22A U87A ?
Reply text: low value

Inquiry: Which polymerase ribozyme fitness (log ratio) band matches C13U C20A U38G ?
Reply text: low value

Inquiry: Which polymerase ribozyme fitness (log ratio) band matches A26U G93U ?
Reply text: medium value

Inquiry: Which polymerase ribozyme fitness (log ratio) band matches C4A C80A ?
Reply text: low value

Inquiry: Which polymerase ribozyme fitness (log ratio) band matches C70U U131A ?
Reply text: high value

Inquiry: Which polymerase ribozyme fitness (log ratio) band matches A41C C114G ?
Reply text: medium value

Inquiry: Which polymerase ribozyme fitness (log ratio) band matches U14G A46G G71C G120A ?
Reply text: high value

Inquiry: Which polymerase ribozyme fitness (log ratio) band matches G17U U55A ?
Reply text: medium value

Inquiry: Which polymerase ribozyme fitness (log ratio) band matches C80U C97U ?
Reply text: high value

Inquiry: Which polymerase ribozyme fitness (log ratio) band matches G48A C115U C124U ?
Reply text: medium value

Inquiry: Which polymerase ribozyme fitness (log ratio) band matches C49U C104U C124A ?
Reply text: high value

Inquiry: Which polymerase ribozyme fitness (log ratio) band matches U9C G52A C104U A121U ?
Reply text: high value

Inquiry: Which polymerase ribozyme fitness (log ratio) band matches C13U C56U U92C C114A ?
Reply text: medium value

Inquiry: Which polymerase ribozyme fitness (log ratio) band matches C49G C89A ?
Reply text: medium value

Inquiry: Which polymerase ribozyme fitness (log ratio) band matches C11G G36A C73U ?
Reply text: high value

Inquiry: Which polymerase ribozyme fitness (log ratio) band matches G63C A121G ?
Reply text: high value

Inquiry: Which polymerase ribozyme fitness (log ratio) band matches C8A C72A U81G G120U ?
Reply text: high value

Inquiry: Which polymerase ribozyme fitness (log ratio) band matches C28A G35C G61A A84C A103G C114A G117C ?
Reply text: low value

Inquiry: Which polymerase ribozyme fitness (log ratio) band matches C22U G57A G63U ?
Reply text: low value

Inquiry: Which polymerase ribozyme fitness (log ratio) band matches C20U C22G A50C C97U U106A A121C ?
Reply text: low value

Inquiry: Which polymerase ribozyme fitness (log ratio) band matches G10U C11U G71U C79U ?
Reply text: high value

Inquiry: Which polymerase ribozyme fitness (log ratio) band matches G51A U81C C97U C115G ?
Reply text: low value

Inquiry: Which polymerase ribozyme fitness (log ratio) band matches A16C C49A C94A C124A ?
Reply text: high value

Inquiry: Which polymerase ribozyme fitness (log ratio) band matches C28G C72A ?
Reply text: medium value

Inquiry: Which polymerase ribozyme fitness (log ratio) band matches C40A U78A C79U U109A ?
Reply text: low value

Inquiry: Which polymerase ribozyme fitness (log ratio) band matches U87G A111U ?
Reply text: medium value

Inquiry: Which polymerase ribozyme fitness (log ratio) band matches A46U G48A C79G C82U G120A C123A ?
Reply text: medium value

Inquiry: Which polymerase ribozyme fitness (log ratio) band matches G69U C104G ?
Reply text: low value

Inquiry: Which polymerase ribozyme fitness (log ratio) band matches C13U C82G A90U C104A ?
Reply text: low value

Inquiry: Which polymerase ribozyme fitness (log ratio) band matches G42U G52U A105C ?
Reply text: low value

Inquiry: Which polymerase ribozyme fitness (log ratio) band matches C70U U81C U96C ?
Reply text: medium value

Inquiry: Which polymerase ribozyme fitness (log ratio) band matches C15G G61C A119G ?
Reply text: high value

Inquiry: Which polymerase ribozyme fitness (log ratio) band matches U7C C13A G93A C102A A103U A121C ?
Reply text: low value

Inquiry: Which polymerase ribozyme fitness (log ratio) band matches G45U C72A C88A G93A G107U A111C ?
Reply text: low value

Inquiry: Which polymerase ribozyme fitness (log ratio) band matches A18C C72U U92G A121G ?
Reply text: high value

Inquiry: Which polymerase ribozyme fitness (log ratio) band matches C49U C101A ?
Reply text: medium value

Inquiry: Which polymerase ribozyme fitness (log ratio) band matches G48U U55G G61U ?
Reply text: high value

Inquiry: Which polymerase ribozyme fitness (log ratio) band matches G63U C85G G113A ?
Reply text: medium value

Inquiry: Which polymerase ribozyme fitness (log ratio) band matches C20U U96G ?
Reply text: medium value

Inquiry: Which polymerase ribozyme fitness (log ratio) band matches C12U C72G ?
Reply text: high value
